Tested on: RAW264.7
Assay: Cytotoxicity against mouse RAW264.7 cells assessed as reduction in cell viability up to 30 uM after 18 hrs by MTT assay
Assay type: cell-based
Conditions: raw264.7, 18 h
PARAMETER: Activity

Worked cases, answers included:
> print(dat)
                                   compound  parameter     result
1  COc1ccc2cc1Oc1ccc(cc1)C[C@H](N)C(=O)NCCC2   Activity  Non-Toxic
2         O=C1CCc2ccc(cc2)Oc2cc(ccc2O)CCCN1   Activity  Non-Toxic
3      COc1ccc(CCCNC(=O)CCc2ccc(O)cc2)cc1Br   Activity  Non-Toxic
4  Oc1ccc2cc1Oc1ccc(cc1)CC/C=C\C(O)CC2 (stereo not given)   Activity  Non-Toxic

The record that follows has no Activity shown yet.
In: If you can, please state the reported Activity value of COc1ccc(CCCNC(=O)[C@@H](N)Cc2ccc(O)cc2)cc1Br .
Out: Non-Toxic
